Where do these numbers come from? They come from PubChem BioAssay AID1508645.

assay summary: Cell viability assay in S16 Pmp22-HiBiT cells
condition label: S16 Schwann Pmp22-HiBiT viability, CellTiter-Glo, 24 h; series mostly up to 27.9 µM
Records with an inconclusive call do not appear. Calls of active or inactive are those of the source. Calls come from the whole dose curve; as a rule, active = well fitted cell-killing curve with a large enough effect; inconclusive = small, poorly fitted or top-dose-only effect, or effect the other way; inactive = no such curve, though single readings can be large or run the other way.
Possible outcomes: active, inactive

compound="CCOCCCNC(=O)c1ccc(-n2c(-c3ccccc3)cc3c2CCC(C)C3)cc1 (stereo not given)" assigned_class=inactive
compound="Cc1cc(NC(=O)C2CCCN(S(=O)(=O)c3cccc4nonc34)C2)ccc1Br (stereo not given)" assigned_class=inactive
compound=Cc1ccc(C)c(NC(=O)Cn2c(=O)n(Cc3ccc4c(c3)OCO4)c(=O)c3ccc(C(=O)NC4CCCCC4)cc32)c1 assigned_class=inactive
compound=Cc1c(Cl)cccc1NC(=O)c1oc2ccc(S(=O)(=O)N3CCC4(CC3)OCCO4)cc2c1C assigned_class=inactive
compound=O=C(Cn1c(-c2cccs2)cc2cc(F)ccc21)NCCCN1CCN(c2ccc(F)cc2)CC1 assigned_class=inactive
compound="COCCCNC(=O)c1ccc(-n2c(-c3ccccc3)cc3c2CCC(C)C3)cc1 (stereo not given)" assigned_class=inactive
compound=COc1ccc(OC)c(NC(=O)CSc2c3c(nc4ccccc24)CCCC3)c1 assigned_class=active
compound=COc1ccc(Cl)cc1NC(=O)CCCS(=O)(=O)c1nc(-c2ccc(OC)c(OC)c2)cc(C(F)(F)F)n1 assigned_class=active
compound=Cc1cc(C)c(NC(=O)Cn2c(=O)n(Cc3ccco3)c(=O)c3ccc(C(=O)NC4CCCC4)cc32)c(C)c1 assigned_class=inactive
compound=COc1ccc(-c2noc(CSc3nnc(-c4ccncc4)n3-c3ccc(C)cc3)n2)cc1 assigned_class=inactive
compound=COC(=O)c1c(-c2ccc(Cl)cc2)noc1N1CCN(c2ccccc2OC)CC1 assigned_class=inactive
compound=COc1ccccc1Nc1c2c(nc3ccc(NC(=O)/C=C/c4cccc(OC)c4OC)cc13)CCCC2 assigned_class=active
compound=CCC(=O)N1CCc2cc(S(=O)(=O)CCC(=O)Nc3ccc(Cl)c(C(F)(F)F)c3)ccc21 assigned_class=inactive
compound=Cc1ccc(CNC(=O)c2nc(S(=O)(=O)Cc3ccc(C)cc3)ncc2Cl)cc1 assigned_class=inactive
compound=CCOC(=O)c1cc2c(=O)n3ccccc3nc2n(Cc2ccco2)c1=NC(=O)c1cc(C)cc(C)c1 assigned_class=inactive
